Test system: E. multilocularis metacestodes
assayDetails: PGI assay: phosphoglucose isomerase release from damaged metacestodes
Type: cell-based, Echinococcus multilocularis
conditionParameters: 10 μM, 5 days, single wells, relative to DB1127 (10 μM)
PGI (% of DB1127 at 10 uM) for assorted compounds
experimentalEndpoint: PGI (% of DB1127 at 10 uM) (%)

>>> print(df.to_string())
                                   compound              experimentaltarget        experimentalendpoint  reportedmeasurement
0  CC1CC(C)CN(C(=O)c2ccc(Cl)cc2Cl)C1 (stereo not drawn) [MMV001344]  E. multilocularis metacestodes  PGI (% of DB1127 at 10 uM)               -22.37
1  COC(=O)c1ccc(Cl)c2c1C1C=CCC1C(c1cccc3ccccc13)N2 (stereo not drawn) [MMV667489]  E. multilocularis metacestodes  PGI (% of DB1127 at 10 uM)                 2.16
2  O=C(Nc1ccc(N2CCCCC2)c(Cl)c1)c1ccc(Br)o1 [MMV019700]  E. multilocularis metacestodes  PGI (% of DB1127 at 10 uM)               -40.52

====

Test system: E. multilocularis metacestodes
assayDetails: PGI assay: phosphoglucose isomerase release from damaged metacestodes
Format: cell-based, Echinococcus multilocularis
conditionParameters: 10 μM, 5 days, single wells, relative to DB1127 (10 μM)
experimentalEndpoint: PGI (% of DB1127 at 10 uM)

In [3]: df
Out[3]:
                                    compound              experimentaltarget  reportedmeasurement
 0  Cc1ccccc1OCCSc1nc2ccc(NC(=O)c3ccccc3)cc2s1  E. multilocularis metacestodes              -17.47%
 1    c1ccc(-c2ccc(-c3nc4ccccc4[nH]3)cc2)cc1  E. multilocularis metacestodes              -89.45%
 2     OCCNc1nc(Nc2ccc(Cl)c(Cl)c2)nc2ccccc12  E. multilocularis metacestodes                6.70%
 3  COc1ccc(-c2nc(N3CCN(C(=O)C4CCCCC4)CC3)c3c4c(sc3n2)CCCC4)cc1  E. multilocularis metacestodes              -22.30%
 4      CCN(CC)CCNc1ncnc2c1[nH]c1ccc(Br)cc12  E. multilocularis metacestodes              -33.20%
 5  COc1ccc(NC(=O)C2c3ccccc3C(=O)N(CC(C)C)C2c2cccs2)cc1Cl (centres unmarked)  E. multilocularis metacestodes              -45.07%
 6  CCN1CCN(c2cc(C)c3cc(NC(=O)c4ccc(OC)c(OC)c4)ccc3n2)CC1  E. multilocularis metacestodes               -7.35%
 7  COc1cc(SC)ccc1C(=O)N1CCCC(C)C1 (centres unmarked)  E. multilocularis metacestodes               16.15%
 8  O=C(NCCCN1CCC(N2CCCCC2)CC1)C1=Cc2cc(Br)ccc2OC1  E. multilocularis metacestodes               11.48%
 9  O=C(Nc1ccc(CN2CCOCC2)cc1)c1ccc(-c2ccc(Br)cc2)o1  E. multilocularis metacestodes              -20.18%
10          CCc1ccc(Nc2cc(C)nc3nc(C)nn23)cc1  E. multilocularis metacestodes               12.73%
11  Br.CCN(CC)S(=O)(=O)c1ccc(-c2csc(Nc3ccc(C)c(C)c3)n2)cc1  E. multilocularis metacestodes               14.04%
12  CCCN(CCC)CC(O)COc1ccccc1C(=O)Nc1ccccc1 (centres unmarked)  E. multilocularis metacestodes              -26.39%
13       N=c1c2ccccc2nnn1-c1cccc(C(F)(F)F)c1  E. multilocularis metacestodes               18.29%
